Measured IC50 values are reported for all entries that follow.
tested-on: human TRPC6 (Homo sapiens)
test: TRPC6 calcium flux assay (FLIPR, OAG-stimulated calcium influx)
measurement-setup: HEK293 cells stably transfected with human TRPC6, read-out: hTRPC6 Potency
Counter-ions that a name gives are not always drawn.
readout-kind: IC50 (nM)

compound	unit-symbol	readout-value
Cn1ncc2c(Cn3c(N4CC[C@@H](F)[C@H](N)C4)nc4cc(F)c(F)cc43)cccc21 [Example 259]	nM	1430
N#Cc1ccc(Cn2c(N3CC[C@@H](F)[C@H](N)C3)nc3ccc(Cl)cc32)cc1 [Example 420, hydrochloride]	nM	0.6
N[C@@H]1CN(c2nc3ccc(F)cc3n2CC(=O)N(CC(F)(F)F)[C@@H]2CCOC2)CC[C@H]1F [Example 672]	nM	1660
N[C@@H]1CN(c2nc3ccc(F)cc3n2Cc2nnc(C(F)F)s2)CC[C@H]1F [Example 573]	nM	117

* * *

tested-on: human TRPC6 (Homo sapiens, UniProt Q9Y210)
Sequence (Q9Y210 1-931): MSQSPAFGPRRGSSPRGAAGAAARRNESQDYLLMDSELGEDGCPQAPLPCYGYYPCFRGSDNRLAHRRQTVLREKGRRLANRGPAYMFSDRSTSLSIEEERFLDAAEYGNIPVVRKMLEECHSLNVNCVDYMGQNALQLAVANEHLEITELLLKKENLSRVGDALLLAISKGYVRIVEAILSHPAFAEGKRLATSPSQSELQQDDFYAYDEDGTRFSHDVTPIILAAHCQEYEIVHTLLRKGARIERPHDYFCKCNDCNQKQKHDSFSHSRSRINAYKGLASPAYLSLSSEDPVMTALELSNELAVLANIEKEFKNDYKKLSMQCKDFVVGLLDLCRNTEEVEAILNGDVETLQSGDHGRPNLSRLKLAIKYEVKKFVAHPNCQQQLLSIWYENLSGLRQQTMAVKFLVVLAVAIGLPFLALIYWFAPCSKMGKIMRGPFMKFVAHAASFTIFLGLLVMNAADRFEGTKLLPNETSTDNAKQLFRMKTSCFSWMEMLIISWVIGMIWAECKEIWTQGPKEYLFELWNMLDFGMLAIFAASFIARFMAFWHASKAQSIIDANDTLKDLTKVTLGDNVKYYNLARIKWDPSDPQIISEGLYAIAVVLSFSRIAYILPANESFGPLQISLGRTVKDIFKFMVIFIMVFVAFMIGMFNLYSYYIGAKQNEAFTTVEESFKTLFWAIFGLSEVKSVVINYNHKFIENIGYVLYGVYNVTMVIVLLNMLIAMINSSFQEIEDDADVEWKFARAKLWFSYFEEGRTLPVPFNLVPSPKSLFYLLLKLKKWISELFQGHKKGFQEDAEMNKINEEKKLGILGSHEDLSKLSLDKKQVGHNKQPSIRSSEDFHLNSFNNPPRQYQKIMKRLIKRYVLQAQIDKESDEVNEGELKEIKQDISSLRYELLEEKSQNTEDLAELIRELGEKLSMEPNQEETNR
test: TRPC6 calcium flux assay (FLIPR, OAG-stimulated calcium influx)
measurement-setup: HEK293 cells stably transfected with human TRPC6, read-out: hTRPC6 Potency
readout-kind: IC50 (nM)

molecule	censoring-sign	readout-value
N[C@@H]1CN(c2nc3cc(F)c(F)cc3n2CC(=O)N2CC3(CCOCC3)C2)CC[C@H]1F [Example 431]	>	3750
N[C@@H]1CN(c2nc3cc(F)c(F)cc3n2CC(=O)N2CC(n3cncn3)C2)CC[C@H]1F [Example 641]	=	1280
N[C@@H]1CN(c2nc3cc(F)c(F)cc3n2CC(=O)N(CCO)C2CC2)CC[C@H]1F [Example 617]	=	33.2
N#Cc1ccc(Cn2c(N3CC[C@@H](O)[C@H](N)C3)nc3cc(F)ccc32)nc1 [Example 208]	=	47.7
N#Cc1ccc2nc(N3CC[C@H](F)[C@H](N)C3)n(CC(=O)N3CCC3)c2c1 [Example 287]	=	10.7
N[C@@H]1CN(c2nc3cc(F)c(F)cc3n2CC(=O)N2CCOC3CCOCC32)CC[C@H]1F (mixture of isomers) [Example 620]	=	60.4
C[C@@H](C(=O)N(C)C)n1c(N2CC[C@@H](F)[C@H](N)C2)nc2cc(F)c(F)cc21 [Example 280]	=	1.47

* * *

Entries and their measured log10(IC50) follow.
tested-on: UniProt:Q9Y210
Sequence (Q9Y210 1-931): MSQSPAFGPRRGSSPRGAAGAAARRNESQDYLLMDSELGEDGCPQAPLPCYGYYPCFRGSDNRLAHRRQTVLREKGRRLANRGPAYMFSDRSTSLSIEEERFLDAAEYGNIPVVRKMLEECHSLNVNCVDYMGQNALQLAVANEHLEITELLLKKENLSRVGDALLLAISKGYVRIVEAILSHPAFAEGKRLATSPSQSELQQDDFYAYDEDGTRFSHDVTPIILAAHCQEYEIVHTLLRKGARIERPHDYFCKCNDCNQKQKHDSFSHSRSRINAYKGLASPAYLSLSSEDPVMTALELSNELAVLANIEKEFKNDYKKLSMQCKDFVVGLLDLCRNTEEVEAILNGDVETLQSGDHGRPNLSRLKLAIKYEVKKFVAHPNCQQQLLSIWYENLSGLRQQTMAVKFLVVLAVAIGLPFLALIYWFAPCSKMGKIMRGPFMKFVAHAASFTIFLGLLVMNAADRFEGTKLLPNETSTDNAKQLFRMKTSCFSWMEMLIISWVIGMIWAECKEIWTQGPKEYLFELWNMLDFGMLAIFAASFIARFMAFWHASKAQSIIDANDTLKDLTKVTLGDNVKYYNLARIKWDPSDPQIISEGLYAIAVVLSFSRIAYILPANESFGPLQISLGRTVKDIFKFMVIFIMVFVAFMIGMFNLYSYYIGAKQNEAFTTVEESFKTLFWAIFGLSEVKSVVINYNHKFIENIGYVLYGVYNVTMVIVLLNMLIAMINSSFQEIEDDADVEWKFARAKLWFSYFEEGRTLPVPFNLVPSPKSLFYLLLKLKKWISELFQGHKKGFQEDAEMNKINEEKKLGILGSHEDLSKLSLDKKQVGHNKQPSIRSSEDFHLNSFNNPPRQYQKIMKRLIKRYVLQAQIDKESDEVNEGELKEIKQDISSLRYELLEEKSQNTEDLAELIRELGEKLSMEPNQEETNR
test: TRPC6 calcium flux assay (FLIPR, OAG-stimulated calcium influx)
measurement-setup: HEK293 cells stably transfected with human TRPC6, read-out: hTRPC6 Potency
Structures can show the parent of a compound that is named as a salt.
readout-kind: log10(IC50) (log10 of the value in nM)

compound	log10(IC50)
CC(C)NC(=O)Cn1c(N2CC[C@@H](F)[C@H](N)C2)nc2cc(F)c(F)cc21	2.18
C[C@@H](c1ccc(C#N)cn1)n1c(N2CC[C@@H](F)[C@H](N)C2)nc2ccccc21 [Example 298, hydrochloride]	1.24
COc1ccc2nc(N3CC[C@H](F)[C@H](N)C3)n(Cc3ccc(C#N)cn3)c2c1 [Example 147, hydrochloride]	-0.36
N#CC1(F)CCN(C(=O)Cn2c(N3CC[C@@H](F)[C@H](N)C3)nc3cc(F)c(F)cc32)C1 (some centres unmarked)	1.68
N#Cc1ccc(Cn2c(N3CCC[C@H](N)C3)nc3c(Cl)cccc32)cc1 [Example 418, 2,2,2-trifluoroacetate]	-0.23
N[C@@H]1CN(c2nc3cc(F)cc(F)c3n2Cc2ccc(Cl)cn2)CCC1(F)F [Example 229, hydrochloride]	1.63
N#Cc1ccc(Cn2c(N3CCC(F)(F)[C@H](N)C3)nc3cc(C(F)(F)F)ccc32)nc1	1.64
CN(CC(F)(F)F)C(=O)Cn1c(N2CC[C@@H](F)[C@H](N)C2)nc2cc(F)c(F)cc21 (single isomer, unassigned) [Example 635]	2.48
N[C@H]1CCCN(c2nc3ccccc3n2Cc2ccc(-c3ncon3)cc2)C1	0.94
C[C@H](C#N)N(C)C(=O)Cn1c(N2CC[C@@H](F)[C@H](N)C2)nc2cc(F)c(F)cc21	0.83

* * *

Item-by-item account of log10 IC50
tested-on: human TRPC6 (Homo sapiens, UniProt Q9Y210)
test: TRPC6 calcium flux assay (FLIPR, OAG-stimulated calcium influx)
measurement-setup: HEK293 cells stably transfected with human TRPC6, read-out: hTRPC6 Potency
Structures can show the parent of a compound that is named as a salt.
readout-kind: log10 IC50 (log10 of the value in nM)

compound	readout-kind	readout-value
N#Cc1ccc(Cn2c(N3CCC(F)(F)[C@H](N)C3)nc3ccc(C(F)(F)F)cc32)nc1 [Example 108]	log10 IC50	-0.36
N#Cc1ccc(Cn2c(N3C[C@H]4C[C@@]4(CN)C3)nc3ccccc32)nc1 [Example 74, hydrochloride]	log10 IC50	2.58
N#Cc1ccc(Cn2c(N3CCC[C@H](N)C3)nc3ccc(Cl)cc32)nc1 [Example 1]	log10 IC50	-0.16
N[C@@H]1CN(c2nc3cc(F)c(F)cc3n2Cc2ccc(C(F)F)cc2)CC[C@H]1F [Example 363]	log10 IC50	1.50
C[C@H](C(=O)N(C)C)n1c(N2CC[C@@H](F)[C@H](N)C2)nc2cc(F)c(F)cc21 [Example 279]	log10 IC50	0.85
CS(=O)(=O)c1ccc(Cn2c(N3CC[C@@H](F)[C@H](N)C3)nc3cc(F)c(F)cc32)nc1 [Example 562]	log10 IC50	1.32
N#Cc1ccc(Cn2c(N3CCC[C@@](N)(CO)C3)nc3ccccc32)nc1 [Example 104]	log10 IC50	1.79
N#Cc1ccc(Cl)cc1Cn1c(N2CC[C@@H](F)[C@H](N)C2)nc2cc(F)c(F)cc21 [Example 347]	log10 IC50	0.03

These data points were gathered from patent US11332459B2.
